TEST_NAME: Plasma concentration in po dosed Sprague-Dawley rat after 1 hr
Format: ADME, organism-based
PROPERTY_NAME: concentration at 1 h (ng/mL)

Known concentration at 1 h results, listed for orientation:
Cc1cccnc1N1CC=C(C(=O)Nc2ccc(S(=O)(=O)C(F)(F)F)cc2)CC1; 960
O=C(Nc1ccc(S(=O)(=O)C(F)(F)F)cc1)C1=CCN(c2ncccc2Cl)CC1; 280

[P] O=C(Nc1ccc(S(=O)(=O)C(F)(F)F)cc1)C1=CCN(c2ncccc2F)CC1
[Q] O=C(Nc1ccc(S(=O)(=O)C(F)(F)F)cc1)C1=CCN(c2ncccc2C(F)(F)F)CC1
[R] O=C(Nc1ccc(S(=O)(=O)C(F)(F)F)cc1)C1=CCN(c2nccs2)CC1
[S] O=C(Nc1ccc(S(=O)(=O)C(F)(F)F)cc1)C1=CCN(c2ncccn2)CC1
Ordering criterion: concentration at 1 h; begin with the maximum. // respond by listing labels in the order requested
R, P, S, Q

* * *

SYSTEM_UNDER_TEST: UniProt:Q8NER1
TEST_NAME: Antagonist activity at human recombinant TRPV1 expressed in human 1321N1 cells assessed as inhibition of N-arachidonoyl-dopamine-induced calcium influx by FLIPR assay
Assay type: functional, cell-based
PROPERTY_NAME: IC50 (nM)
Expressed in nM, but write only the number.

Report its IC50 with UniProt:Q8NER1 as the test system: `O=C(Nc1ccc(S(=O)(=O)C(F)(F)F)cc1)C1=CCN(c2ncccc2C(F)(F)F)CC1`
20.2

* * *

SYSTEM_UNDER_TEST: Transient receptor potential cation channel subfamily V member 1 (Homo sapiens, UniProt Q8NER1)
Sequence (Q8NER1 whole entry): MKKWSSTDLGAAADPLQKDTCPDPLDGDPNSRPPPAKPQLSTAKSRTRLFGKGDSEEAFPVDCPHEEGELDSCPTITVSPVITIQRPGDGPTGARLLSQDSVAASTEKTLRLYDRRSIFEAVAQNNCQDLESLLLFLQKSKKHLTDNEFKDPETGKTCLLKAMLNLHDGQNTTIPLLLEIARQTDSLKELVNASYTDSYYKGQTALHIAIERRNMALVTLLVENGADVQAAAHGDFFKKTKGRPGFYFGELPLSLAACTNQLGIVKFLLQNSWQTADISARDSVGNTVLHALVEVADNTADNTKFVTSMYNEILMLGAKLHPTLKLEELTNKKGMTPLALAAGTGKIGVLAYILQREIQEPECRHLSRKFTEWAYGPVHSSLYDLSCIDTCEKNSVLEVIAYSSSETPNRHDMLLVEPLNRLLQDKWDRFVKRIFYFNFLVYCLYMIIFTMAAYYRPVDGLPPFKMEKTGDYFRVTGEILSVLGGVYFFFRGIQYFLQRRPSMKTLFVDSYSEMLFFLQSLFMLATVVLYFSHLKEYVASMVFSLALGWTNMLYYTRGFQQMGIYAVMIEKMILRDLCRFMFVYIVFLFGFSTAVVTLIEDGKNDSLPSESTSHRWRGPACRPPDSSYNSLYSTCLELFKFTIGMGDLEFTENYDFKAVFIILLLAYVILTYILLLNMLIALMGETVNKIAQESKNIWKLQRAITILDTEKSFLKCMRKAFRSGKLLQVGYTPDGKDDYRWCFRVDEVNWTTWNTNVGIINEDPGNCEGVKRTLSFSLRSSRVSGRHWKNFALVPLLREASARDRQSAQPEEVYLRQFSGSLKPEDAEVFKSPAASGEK
TEST_NAME: Antagonist activity at human recombinant TRPV1 expressed in human 1321N1 cells assessed as inhibition of pH 5.5-induced calcium influx by FLIPR assay
Type: functional, cell-based
PROPERTY_NAME: IC50 (nM)
Supply the numeric figure in nM, leaving out any unit text.

Look up and state reported IC50 for `O=C(Nc1ccc(S(=O)(=O)C(F)(F)F)cc1)C1=CCN(c2ncccc2C(F)(F)F)CC1`
14

* * *

SYSTEM_UNDER_TEST: Transient receptor potential cation channel subfamily V member 1 (Rattus norvegicus, UniProt O35433)
Sequence (O35433 whole entry): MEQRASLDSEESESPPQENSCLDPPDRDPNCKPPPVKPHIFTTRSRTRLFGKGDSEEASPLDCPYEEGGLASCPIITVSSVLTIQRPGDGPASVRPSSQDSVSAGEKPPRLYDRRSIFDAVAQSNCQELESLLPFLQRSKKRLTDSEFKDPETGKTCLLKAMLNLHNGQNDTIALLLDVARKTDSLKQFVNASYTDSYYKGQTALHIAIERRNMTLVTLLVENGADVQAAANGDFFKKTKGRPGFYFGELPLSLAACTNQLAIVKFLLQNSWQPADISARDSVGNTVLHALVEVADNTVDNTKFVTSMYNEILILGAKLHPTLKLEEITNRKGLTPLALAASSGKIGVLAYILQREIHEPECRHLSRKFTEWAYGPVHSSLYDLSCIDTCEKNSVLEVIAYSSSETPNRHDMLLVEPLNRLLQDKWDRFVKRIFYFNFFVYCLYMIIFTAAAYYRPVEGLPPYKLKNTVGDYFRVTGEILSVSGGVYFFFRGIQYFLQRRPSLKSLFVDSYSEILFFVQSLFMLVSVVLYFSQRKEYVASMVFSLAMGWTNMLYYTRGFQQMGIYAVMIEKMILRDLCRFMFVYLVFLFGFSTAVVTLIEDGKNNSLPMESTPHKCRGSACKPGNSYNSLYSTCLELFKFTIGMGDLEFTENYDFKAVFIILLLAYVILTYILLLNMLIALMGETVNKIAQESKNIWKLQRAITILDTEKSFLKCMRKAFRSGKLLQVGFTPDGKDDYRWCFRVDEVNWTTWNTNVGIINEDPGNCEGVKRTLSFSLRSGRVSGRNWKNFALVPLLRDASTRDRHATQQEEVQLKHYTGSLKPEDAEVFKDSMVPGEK
TEST_NAME: Antagonist activity at rat TRPV1 expressed in human 1321N1 cells assessed as inhibition of capsaicin-induced calcium influx by FLIPR assay
pIC50: −log10 of the molar value.
PROPERTY_NAME: pIC50

[A] O=C(Nc1cccc2[nH]ncc12)N[C@@H]1CCc2cc(N3CCCCC3)ccc21
[B] O=C(Nc1ccc(S(=O)(=O)C(F)(F)F)cc1)C1=CCN(c2ncccc2C(F)(F)F)CC1
Of A versus B , which is the one with smaller reported pIC50? // caller expects the label of the chosen entry
A
(A: 7.52, B: 7.77)

* * *

SYSTEM_UNDER_TEST: Transient receptor potential cation channel subfamily V member 1 (Homo sapiens)
TEST_NAME: Antagonist activity at human recombinant TRPV1 expressed in human 1321N1 cells assessed as inhibition of capsaicin-induced calcium influx by FLIPR assay
Type: functional, cell-based
PROPERTY_NAME: IC50 (nM)

Answered examples (5):
O=C(Nc1ccc(S(=O)(=O)C(F)(F)F)cc1)C1=CCN(c2ncccc2C(F)(F)F)CC1; 24
O=C(Nc1ccc(Cl)c(Cl)c1)C1=CCN(c2ncccc2Cl)CC1; 124
Cc1cccnc1N1CC=C(C(=O)Nc2ccc(S(=O)(=O)C(F)(F)F)cc2)CC1; 35
COc1cccc(NC(=O)c2ccc(-c3ccccc3)cc2)c1; 147
O=C(Nc1ccc(Cl)cc1)C1=CCN(c2ncccc2C(F)(F)F)CC1; 19

[a] O=C(Nc1ccc(Cl)cc1F)C1=CCN(c2ncccc2Cl)CC1
[b] O=C(Nc1ccc(Cl)cc1C(F)(F)F)C1=CCN(c2ncccc2Cl)CC1
Would you kindly point out which of a and b has the smaller IC50 figure? Could you answer with the label of the item you picked?
a

[P] CC(C)(C)c1ccc(NC(=O)C2=CCN(c3ccccn3)CC2)cc1
[Q] O=C(Nc1ccc(S(=O)(=O)C(F)(F)F)cc1)C1=CCN(c2ncccn2)CC1
Of P and Q , which shows the smaller IC50 value? Indicate which entry you chose by stating its label.
P

[A] CC(C)(C)c1ccc(NC(=O)C2=CCN(c3ncccc3F)CC2)cc1
[B] O=C(Nc1ccc(S(=O)(=O)C(F)(F)F)cc1)C1=CCN(c2ncccc2F)CC1
Quick check, higher IC50 between A and B ? Pick one and reply with its label.
B

* * *

TEST_NAME: Oral bioavailability in Sprague-Dawley rat
Format: ADME, organism-based
ASSAY_SETUP: in vivo
PROPERTY_NAME: bioavailability (%)

[A] O=C(Nc1ccc(C(F)(F)F)nc1)C1=CCN(c2ncccc2C(F)(F)F)CC1
[B] O=C(Nc1ccc(Cl)cc1)C1=CCN(c2ncccc2Cl)CC1
For the pair A and B , which entry has the numerically smaller recorded bioavailability? Your choice should be expressed through its label.
A

* * *

TEST_NAME: Apparent permeability across human Caco-2 cell membrane
Type: ADME, cell-based
PROPERTY_NAME: Papp (×10⁻⁶ cm/s)
Please reply with the bare figure in ×10⁻⁶ cm/s and do not write the unit itself.

Item `O=C(Nc1ccc(S(=O)(=O)C(F)(F)F)cc1)C1=CCN(c2ncccc2C(F)(F)F)CC1` : provide Papp
28.5

* * *

SYSTEM_UNDER_TEST: Transient receptor potential cation channel subfamily V member 1 (Homo sapiens)
TEST_NAME: Antagonist activity at human recombinant TRPV1 expressed in human 1321N1 cells assessed as inhibition of capsaicin-induced calcium influx by FLIPR assay
Assay type: functional, cell-based
PROPERTY_NAME: IC50 (nM)

Consider the worked cases shown below.
CC(C)(C)c1ccc(NC(=O)C2CCN(c3ncccc3Cl)CC2)cc1; 196
O=C(Nc1ccc(Cl)c(F)c1)C1=CCN(c2ncccc2Cl)CC1; 78
O=C(Nc1ccc(Cl)cc1)C1=CCN(c2ncccc2Cl)CC1; 33

[A] CC(C)(C)c1ccc(NC(=O)C2=CCN(c3nccs3)CC2)cc1
[B] CC(C)(C)c1ccc(NC(=O)C2=CCN(c3ncccc3C#N)CC2)cc1
[C] O=C(Nc1ccc(C(F)(F)F)nc1)C1=CCN(c2ncccc2C(F)(F)F)CC1
Please give the order of these compounds when sorted by IC50, largest value leading. Provide the labels, sequenced as the question asks.
B, C, A

* * *

TEST_NAME: Half-life in po dosed Sprague-Dawley rat
Assay type: ADME, organism-based
ASSAY_SETUP: in vivo
PROPERTY_NAME: half-life (h)
Please state the figure in h; there is no need to write the unit.

// fetch half-life given entry `O=C(Nc1ccc(Cl)cc1)C1=CCN(c2ncccc2Cl)CC1`
1.7

* * *

SYSTEM_UNDER_TEST: Transient receptor potential cation channel subfamily V member 1 (Homo sapiens, UniProt Q8NER1)
TEST_NAME: Antagonist activity at human recombinant TRPV1 expressed in human 1321N1 cells assessed as inhibition of capsaicin-induced calcium influx by FLIPR assay
Format: functional, cell-based
PROPERTY_NAME: IC50 (nM)

Known results for molecules:
O=C(Nc1ccc(S(=O)(=O)C(F)(F)F)cc1)C1=CCN(c2ncccc2Cl)CC1; 41
CC(C)(C)c1ccc(NC(=O)C2=CCN(c3ncccc3C(F)(F)F)CC2)cc1; 6
CC(C)(C)c1ccc(NC(=O)C2=CCN(c3ncccn3)CC2)cc1; 10
CC(C)(C)c1ccc(NC(=O)c2ccc(-c3ccccn3)cc2)cc1; 42
CC(C)(C#N)c1ccc(NC(=O)C2=CCN(c3ncccc3C(F)(F)F)CC2)cc1; 41

[I] CC(C)(C)c1ccc(NC(=O)C2=CCN(c3ccccc3F)CC2)cc1
[II] O=C(Nc1ccc(S(=O)(=O)C(F)(F)F)cc1)C1=CCN(c2nccs2)CC1
[III] CC(C)(C)c1ccc(NC(=O)C2=CCN(c3ncccc3Cl)CC2)cc1
Arrange by IC50, high to low. // format: requested-order list of labels
I, II, III
(I: 265 nM, II: 95 nM, III: 10 nM)

[1] O=C(Nc1cccc2[nH]ncc12)N[C@@H]1CCc2cc(N3CCCCC3)ccc21
[2] O=C(Nc1ccc(C(F)(F)F)cc1)C1=CCN(c2ncccc2C(F)(F)F)CC1
Thinking about recorded IC50 values, which is higher, 1 or 2 ? Could you answer with the label of the item you picked?
1
